# Test system: HS729
# Procedure text: relative viability vs DMSO control (72 h) (fraction); higher = more viable cells
# Applied conditions: 1.111 µM
Parameter measured: relative viability

Compound	Recorded result
COc1cc(Nc2ncc(F)c(Nc3ccc4c(n3)N(COP(=O)(O)O)C(=O)C(C)(C)O4)n2)cc(OC)c1OC	0.726
Cc1cc2c(F)c(Oc3ncnn4cc(OC[C@@H](C)O)c(C)c34)ccc2[nH]1	0.963
COc1cc(CCc2cc(NC(=O)c3ccc(N4CC(C)NC(C)C4)cc3)n[nH]2)cc(OC)c1 (stereo not given)	0.57
CO[C@H]1C[C@@H]2CC[C@@H](C)[C@@](O)(O2)C(=O)C(=O)N2CCCC[C@H]2C(=O)O[C@H]([C@H](C)C[C@@H]2CC[C@@H](OCCO)[C@H](OC)C2)CC(=O)[C@H](C)/C=C(\C)[C@@H](O)[C@@H](OC)C(=O)[C@H](C)C[C@H](C)/C=C/C=C/C=C/1C	0.821
Cc1cc2cc(Oc3ccnc(Nc4cccc(CS(=O)(=O)NCCN(C)C)c4)n3)ccc2[nH]1	0.768
